Target: PAR2 (HT-29 cells, SLIGKV activation) (Homo sapiens)
Construct: host or cells: HT-29 cells
Sequence (P55085 26-397): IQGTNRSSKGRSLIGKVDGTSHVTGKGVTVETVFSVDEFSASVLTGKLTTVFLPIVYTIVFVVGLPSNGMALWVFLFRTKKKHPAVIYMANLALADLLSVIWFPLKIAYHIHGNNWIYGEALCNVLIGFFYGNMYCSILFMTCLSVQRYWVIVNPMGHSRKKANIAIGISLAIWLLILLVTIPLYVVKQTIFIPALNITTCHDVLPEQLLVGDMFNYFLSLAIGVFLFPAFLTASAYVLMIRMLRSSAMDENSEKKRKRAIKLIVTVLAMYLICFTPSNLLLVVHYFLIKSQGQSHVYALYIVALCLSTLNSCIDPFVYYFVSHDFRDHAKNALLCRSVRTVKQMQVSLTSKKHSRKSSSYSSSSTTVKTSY
Test: Ca FLIPR TETRA assay, ANTAGONIST mode, stimulation with 8 μM SLIGKV
Assay type: cell-based
Conditions: HT-29 cells, antagonist mode, stimulation with 8 μM SLIGKV
Procedure: Example 60: Protocol for Testing PAR2 Compounds in ANTAGONIST Mode Using the Ca FLIPR^TETRA Assay (384 Well) […] A first read was performed to determine whether the test compounds on their own can activate Ca2+ responses. The cells were incubated with the compounds for 30 min at r. t. and then read in ANTAGONIST mode in the same plate by stimulating with 6.2 uL of a fixed concentration of the activator: final concentrations: 8 μM SLIGKV, 1 U/mL Thrombin, 3.1 U/mL trypsin, or 0.6 μM UTP.
Output Yes for records whose IC50 is lower than 1 nM, No for records at or above 1 nM.

Q: Hi there! Is IC50 for `CC(C)(C)c1cc(-c2ccc(C(F)(F)F)cc2)nn2cc(C(=O)N3CCN(C(=O)c4ccn[nH]4)CC3(C)C)nc12` below 1 nM, do you know?
Ans: No

Q: Hi there! Is IC50 for COC(=O)C1CC(C(=O)N2CCN(C(=O)c3cn4nc(-c5ccc(Cl)cc5)cc(C(C)C)c4n3)C(C)(C)C2)C1 (stereo not drawn) [Compound I-545] below 1 nM, do you know?
Ans: No

Q: Hi there! Is IC50 for `Cc1cccc(-c2cc(C(C)C)c3nc(C(=O)N4CCN(C(=O)C(C)(C)O)CC4(C)C)cn3n2)c1` below 1 nM, do you know?
Ans: No

Q: Hi there! Is IC50 for `CC(C)c1cc(-c2ccc(F)c(C3CC3)c2)nn2cc(C(=O)N3CCNC(=O)C3(C)C)nc12` below 1 nM, do you know?
Ans: No

Q: Hi there! Is IC50 for `CC(C)c1cc(-c2ccc(C(F)(F)F)c(F)c2)nn2cc(C(=O)N3CCNC(=O)C3(C)C)nc12` below 1 nM, do you know?
Ans: Yes

* * *

target: PAR2 (HT-29 cells, trypsin activation) (Homo sapiens, UniProt P55085); construct: host or cells: HT-29 cells; assay: Ca FLIPR TETRA assay, ANTAGONIST mode, stimulation with 3.1 U/mL trypsin; type: cell-based; settings: HT-29 cells, antagonist mode, stimulation with 3.1 U/mL trypsin
Sequence (P55085 26-397): as above
REPORTED PROPERTY: IC50 (nM)
Respond with the bare value in nM.

Q: Jot down IC50 (PAR2 (HT-29 cells, trypsin activation) (Homo sapiens, UniProt P55085)) of CC(C)(CO)c1cc(-c2ccc(F)cc2)nn2cc(C(=O)N3CCNC(=O)C3(C)C)nc12 [Compound I-189] .
Ans: 417

Q: Jot down IC50 (PAR2 (HT-29 cells, trypsin activation) (Homo sapiens, UniProt P55085)) of CC(C)c1cc(-c2ccc(F)cc2)nn2cc(C(=O)N3CCN(C(=O)c4nc[nH]n4)CC3(C)C)nc12 [Compound I-237] .
Ans: 14.1

Q: Jot down IC50 (PAR2 (HT-29 cells, trypsin activation) (Homo sapiens, UniProt P55085)) of CC(C)(C)c1cc(-c2ccccc2F)nn2cc(C(=O)N3CCNC(=O)C3(C)C)nc12 [Compound I-473] .
Ans: 25.5

Q: Jot down IC50 (PAR2 (HT-29 cells, trypsin activation) (Homo sapiens, UniProt P55085)) of CC(C)(C)c1cc(-c2ccc(F)c(Cl)c2)nn2cc(C(=O)N3CCN(C(=O)[C@H]4CC[C@H](C(=O)O)CC4)CC3(C)C)nc12 [Compound I-488] .
Ans: 4.2

Q: Jot down IC50 (PAR2 (HT-29 cells, trypsin activation) (Homo sapiens, UniProt P55085)) of CC(F)(F)c1cc(-c2ccc(F)cc2)nn2cc(C(=O)N3CCNC(=O)C3(C)C)nc12 [Compound I-325] .
Ans: 110

Q: Jot down IC50 (PAR2 (HT-29 cells, trypsin activation) (Homo sapiens, UniProt P55085)) of CC(C)c1cc(-c2ccc(F)c(F)c2)nn2cc(C(=O)N3CCN(C(=O)C(C)(C)O)CC3(C)C)nc12 [Compound I-221] .
Ans: 39.5

Q: Jot down IC50 (PAR2 (HT-29 cells, trypsin activation) (Homo sapiens, UniProt P55085)) of CC(C)c1cc(-c2ccc(F)c(Cl)c2)nn2cc(C(=O)N3CCN(C(=O)[C@H]4C[C@H](C(=O)O)C4)CC3(C)C)nc12 [Compound I-501] .
Ans: 59.5

Q: Jot down IC50 (PAR2 (HT-29 cells, trypsin activation) (Homo sapiens, UniProt P55085)) of CC(C)(C)c1cc(-c2ccc(F)cc2)nn2cc(C(=O)N3CCN(C(=O)c4ccno4)CC3(C)C)nc12 [Compound I-202] .
Ans: 0.9

Q: Jot down IC50 (PAR2 (HT-29 cells, trypsin activation) (Homo sapiens, UniProt P55085)) of CC(C)(C)c1cc(-c2ccc(F)cc2)nn2cc(C(=O)N3CCN(c4cscn4)C(=O)C3(C)C)nc12 [Compound I-266] .
Ans: 1

Q: Jot down IC50 (PAR2 (HT-29 cells, trypsin activation) (Homo sapiens, UniProt P55085)) of Cc1ccc(-c2cc(C(C)(C)C)c3nc(C(=O)N4CCN(c5c[nH]c(C)n5)C(=O)C4(C)C)cn3n2)cc1 [Compound I-368] .
Ans: 6.8
